Molecular target: UniProtKB B4URF0
Assay: Inhibition of Influenza A virus (A/Indonesia/5/2005(H5N1)) neuraminidase infected in chick embryo using MUNANA as substrate after 1 hr by spectrophotometric analysis
Reported Endpoint: IC50 (µM)

Given Smiles	Assay System	Result Value
CC(=O)N[C@H]1[C@H]([C@H](O)[C@H](O)CO)OC(C(=O)N2CCC(C(=O)O)CC2)=C[C@@H]1N	UniProtKB B4URF0	5.76
CC(=O)N[C@H]1[C@H]([C@H](O)[C@H](O)CO)OC(C(=O)NCC(=O)O)=C[C@@H]1N	UniProtKB B4URF0	8.67
CC(=O)N[C@H]1[C@H]([C@H](O)[C@H](O)CO)OC(C(=O)N[C@@H](CC(C)C)C(=O)O)=C[C@@H]1N	UniProtKB B4URF0	669
CC(=O)N[C@H]1[C@H]([C@H](O)[C@H](O)CO)OC(C(=O)N[C@@H](CCC(=O)O)C(=O)O)=C[C@@H]1NC(=N)N	UniProtKB B4URF0	0.16
CC(=O)N[C@H]1[C@H]([C@H](O)[C@H](O)CO)OC(C(=O)N2CCC[C@@H](C(=O)O)C2)=C[C@@H]1N	UniProtKB B4URF0	162
CC(=O)N[C@H]1[C@H]([C@H](O)[C@H](O)CO)OC(C(=O)NCc2ccc(C)cc2)=C[C@@H]1NC(=N)N	UniProtKB B4URF0	0.28
CC(=O)N[C@H]1[C@H]([C@H](O)[C@H](O)CO)OC(C(=O)NCCC(=O)O)=C[C@@H]1NC(=N)N	UniProtKB B4URF0	0.07
CC(=O)N[C@H]1[C@H]([C@H](O)[C@H](O)CO)OC(C(=O)N[C@H](C(=O)O)C(C)C)=C[C@@H]1NC(=N)N	UniProtKB B4URF0	4.19
CC(=O)N[C@H]1[C@H]([C@H](O)[C@H](O)CO)OC(C(=O)N[C@H](C(=O)O)C(C)C)=C[C@@H]1N	UniProtKB B4URF0	4.3

----------
Test: Cmax in Sprague-Dawley rat at 2 mg/kg, iv
Format: ADME, organism-based
Parameters: dose 2 mg/kg, route intravenous
Conditions: in vivo
Reported Endpoint: Cmax (ng/mL)

Given Smiles	Reported Endpoint	Result Value
CC(=O)N[C@H]1[C@H]([C@H](O)[C@H](O)CO)OC(C(=O)NCc2cccc(F)c2)=C[C@@H]1NC(=N)N	Cmax	8800

----------
Biological target: Neuraminidase (Influenza A virus, UniProt B4URF0)
Sequence (B4URF0 whole entry): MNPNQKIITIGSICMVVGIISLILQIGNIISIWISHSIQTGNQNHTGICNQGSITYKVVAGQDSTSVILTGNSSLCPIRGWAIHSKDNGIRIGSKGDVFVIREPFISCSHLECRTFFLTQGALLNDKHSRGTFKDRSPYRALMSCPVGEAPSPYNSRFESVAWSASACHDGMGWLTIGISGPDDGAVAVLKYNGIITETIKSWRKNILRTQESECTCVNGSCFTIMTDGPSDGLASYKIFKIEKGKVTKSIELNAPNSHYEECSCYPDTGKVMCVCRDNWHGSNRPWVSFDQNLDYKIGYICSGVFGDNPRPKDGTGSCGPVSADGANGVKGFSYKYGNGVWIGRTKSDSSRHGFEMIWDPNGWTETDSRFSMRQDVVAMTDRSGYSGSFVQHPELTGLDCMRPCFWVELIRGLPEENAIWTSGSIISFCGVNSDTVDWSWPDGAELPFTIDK
Assay: Inhibition of influenza A virus (A/Guangdong/376/2001(H1N1)) neuraminidase infected in chick embryo using MUNANA as substrate after 1 hr by spectrophotometric analysis

Given Smiles	Assay System	Value Operator	IC50, µM
CC(=O)N[C@H]1[C@H]([C@H](O)[C@H](O)CO)OC(C(=O)N[C@@H](CCC(=O)O)C(=O)O)=C[C@@H]1NC(=N)N	Neuraminidase (Influenza A virus, UniProt B4URF0)	=	0.45
CC(=O)N[C@H]1[C@H]([C@H](O)[C@H](O)CO)OC(C(=O)N[C@@H](C)C(=O)O)=C[C@@H]1NC(=N)N	Neuraminidase (Influenza A virus, UniProt B4URF0)	=	0.1
CC(=O)N[C@H]1[C@H]([C@H](O)[C@H](O)CO)OC(C(=O)NCc2ccccc2)=C[C@@H]1O	Neuraminidase (Influenza A virus, UniProt B4URF0)	=	143
CC[C@H](C)[C@H](NC(=O)C1=C[C@H](O)[C@@H](NC(C)=O)[C@H]([C@H](O)[C@H](O)CO)O1)C(=O)O	Neuraminidase (Influenza A virus, UniProt B4URF0)	>	1000
